All values here come from ChEMBL document CHEMBL3988442.

# Organism: Homo sapiens
# Test Name: To identify inhibition of the IFN signalling (Jak-Stat) pathway via expression of an eGFP reporter gene under the control of an IFN-stimulated response element (ISRE) containing MxA promoter.
# Type: functional
# Parameters: scale not given: direction of the effect not stated beside the values
# Assay Setup: 30 µM
Reported Metric: Percent Effect (%)
Express the result in % but write the number alone.

Please review the entries below; each comes with its answer.
Compound	Reported Metric	Reported
CNC(=O)c1cc(S(=O)(=O)C(C)C)cs1	Percent Effect	-6.32
Cc1occc1CNC(=O)N(CCCO)C1CCc2ccccc21 (stereo not drawn)	Percent Effect	16.1
Cc1ccccc1CC(=O)N(C)C1CCCC1	Percent Effect	17
Cc1n[nH]c(=O)c2c(NC(=O)CN3CCOC(C)C3)oc(C)c12 (stereo not drawn)	Percent Effect	25.5

Exercise: Name the reported Percent Effect value associated with the compound COCC(C)NC(=O)c1cc(Br)c2c(c1)OCCO2 (stereo not drawn)
Key: 10.6

Exercise: # input compound: O=C1CC2(CCN(S(=O)(=O)c3cccs3)C2)CN1c1ccccc1 (stereo not drawn) ; wanted: its Percent Effect
Key: 8.75

Exercise: Look up Percent Effect for this compound: Cn1cc(CN2CCCC23CCN(C(=O)c2cccn2C)CC3)cn1
Key: -15.7

Exercise: Given Cc1cnc(N2CCC3(CCN(CC4CC4)C3=O)CC2)nc1 , state its recorded Percent Effect.
Key: 17.8

Exercise: # Percent Effect lookup, item CC(C)c1noc(CCC(=O)NCC2CCS(=O)(=O)C2)n1 (stereo not drawn)
Key: 1.69

Exercise: Dear colleague, I am looking for the recorded Percent Effect of the following compound: CCOCC1CC2(CCN(Cc3ccccn3)CC2)CO1 (stereo not drawn)
Key: -4.94

Exercise: Endpoint output: Percent Effect of CN(CC(=O)Nc1ccc(Br)cn1)C(=O)Cc1ccc(O)cc1 . Value?
Key: 0.283

Exercise: Which Percent Effect value belongs to CCc1noc(C(C)N2CCC(N3CCCC3)CC2)n1 (stereo not drawn) ?
Key: -3.75

Exercise: Return reported Percent Effect; argument: COCC1CC2(CCN(Cc3ccc(OC)cc3)CC2)CN1C(C)C (stereo not drawn)
Key: -19.4

Exercise: // returns reported Percent Effect for input Cn1ccnc1CN1CCCC1c1noc(C2CC2)n1 (stereo not drawn)
Key: -3.87

Exercise: Dear colleague, I am looking for the recorded Percent Effect of the following compound: CC(C)(C)n1ncc2c1NC(=O)CC2c1ccsc1 (stereo not drawn)
Key: 15.1

Exercise: Item under review: COc1ccccc1CCN(C)C(=O)NC(C)c1nncn1C (stereo not drawn) . Reported Percent Effect?
Key: -2.26

Exercise: If you can, please state the reported Percent Effect value of COc1cccc(CN2CCCC3(CCN(C(=O)c4ccco4)C3)C2)c1 (stereo not drawn) .
Key: 5.54

Exercise: Record request: Percent Effect value, item CCOC(=O)N1CCN(C(=O)c2sc(-c3ccc(F)cc3)nc2C)CC1
Key: 1.22

Exercise: Dear colleague, I am looking for the recorded Percent Effect of the following compound: COc1cccc(CNc2cnn(C)c(=O)c2Cl)c1
Key: 55.5

Exercise: Please give the measured Percent Effect for this compound: Cc1[nH]nc(CCC(=O)N2CCCC(OCc3cccnc3)C2)c1C (stereo not drawn)
Key: 27.8

Exercise: Return reported Percent Effect; argument: Cn1cc(-c2nc(CNCCn3cccn3)cs2)cn1
Key: 32.9

Exercise: Using the record for CCCc1n[nH]cc1C(=O)N1CCC(c2nccn2CCOC)CC1 , report its Percent Effect.
Key: 11

Exercise: Return reported Percent Effect; argument: Cc1cc(C)n(CCC(=O)N2CCCC(n3cncn3)C2)n1 (stereo not drawn)
Key: -5.14
